B1: Hairpin Ribozyme (parent)
chain: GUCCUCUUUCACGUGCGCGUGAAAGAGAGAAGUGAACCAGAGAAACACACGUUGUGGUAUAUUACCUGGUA

variants of: B1; experiment: self-cleavage, relative activity (ratio to wild type); higher = more cleavage; co-transcriptional
assay metric: self-cleavage

Data request: Which self-cleavage value belongs to GUCCUCUUUCACGUGCGCGUGAAAGAGAGAACUGAACCAGAGAAACACAUGUUGUGGUAUAUUACCUGGUA [G32C C50U] ?
Data returned: 0.0935

Data request: Any idea what its self-cleavage is? The variant is GUCCUCUUUCACGUGCGCGUGAAAGAGAGAAGUGAAUCAGAGAAACACACGUUGUGGUAUAUUACCUAGUA [C37U G68A]
Data returned: 0.257

Data request: Suppose we examine the variant GUCCUGUUUCACGUGCGCGUGAAAGAGAGAAGUGAACCAUAGAAACACACGUUGUGGUAUAUUACCUGGUA [C6G G40U] ; what self-cleavage value has been reported?
Data returned: 0.103

Data request: Given GUCCUCUUUGACGUGCGCGUGAAAGAGAGAAGUGAACCAGAGAAACACACGUUGUUGUAUAUUACCUGGUA [C10G G56U] , state its recorded self-cleavage.
Data returned: 0.109

Data request: I'd like to know its self-cleavage. The variant in question is GUCCUCUAUCACGUGCGCGUGAAAGAGAGAAGUGAACCAGAGAAACACACGUUGUGGUAUUUUACCUGGUA [U8A A61U]
Data returned: 0.191
